# assay comment: Phase 2A study (Magnolia) in women with postpartum depression: ganaxolone plasma concentrations / pharmacokinetics
# conditions: female, human, plasma, intravenous, 160 μg/kg/hr, Mean average GNX Concentration, calculated for dose 160 μg/kg/hr; time 48 hr
# Method: Approximately 200 women with PPD 18 to 45 years of age are screened to randomize up to 100 subjects across up to 6 cohorts. Approximately 10-30 subjects are randomized into each cohort. Randomized subjects receive the investigational product (IP), ganaxolone or matching placebo in a 1:1 ratio. In Cohorts 1-5 the IP is administered intravenously over 60 hours. In Cohort 6 the dosing is initiated with a 6-hour intravenous (IV) infusion followed by oral dosing for 28 days plus 3-day taper. […]
readout type: concentration at 48 hr

Input: Look at this compound and give its reported concentration at 48 hr. CC(=O)[C@H]1CC[C@H]2[C@@H]3CC[C@H]4C[C@](C)(O)CC[C@]4(C)[C@H]3CC[C@]12C [ganaxolone, 3α-hydroxy-3β-methyl-5α-pregnan-20-one]
Output: 187 ng/mL
